Target: PI3Kα (p110α/p85α) (Homo sapiens)
Sequence (P42336 whole entry): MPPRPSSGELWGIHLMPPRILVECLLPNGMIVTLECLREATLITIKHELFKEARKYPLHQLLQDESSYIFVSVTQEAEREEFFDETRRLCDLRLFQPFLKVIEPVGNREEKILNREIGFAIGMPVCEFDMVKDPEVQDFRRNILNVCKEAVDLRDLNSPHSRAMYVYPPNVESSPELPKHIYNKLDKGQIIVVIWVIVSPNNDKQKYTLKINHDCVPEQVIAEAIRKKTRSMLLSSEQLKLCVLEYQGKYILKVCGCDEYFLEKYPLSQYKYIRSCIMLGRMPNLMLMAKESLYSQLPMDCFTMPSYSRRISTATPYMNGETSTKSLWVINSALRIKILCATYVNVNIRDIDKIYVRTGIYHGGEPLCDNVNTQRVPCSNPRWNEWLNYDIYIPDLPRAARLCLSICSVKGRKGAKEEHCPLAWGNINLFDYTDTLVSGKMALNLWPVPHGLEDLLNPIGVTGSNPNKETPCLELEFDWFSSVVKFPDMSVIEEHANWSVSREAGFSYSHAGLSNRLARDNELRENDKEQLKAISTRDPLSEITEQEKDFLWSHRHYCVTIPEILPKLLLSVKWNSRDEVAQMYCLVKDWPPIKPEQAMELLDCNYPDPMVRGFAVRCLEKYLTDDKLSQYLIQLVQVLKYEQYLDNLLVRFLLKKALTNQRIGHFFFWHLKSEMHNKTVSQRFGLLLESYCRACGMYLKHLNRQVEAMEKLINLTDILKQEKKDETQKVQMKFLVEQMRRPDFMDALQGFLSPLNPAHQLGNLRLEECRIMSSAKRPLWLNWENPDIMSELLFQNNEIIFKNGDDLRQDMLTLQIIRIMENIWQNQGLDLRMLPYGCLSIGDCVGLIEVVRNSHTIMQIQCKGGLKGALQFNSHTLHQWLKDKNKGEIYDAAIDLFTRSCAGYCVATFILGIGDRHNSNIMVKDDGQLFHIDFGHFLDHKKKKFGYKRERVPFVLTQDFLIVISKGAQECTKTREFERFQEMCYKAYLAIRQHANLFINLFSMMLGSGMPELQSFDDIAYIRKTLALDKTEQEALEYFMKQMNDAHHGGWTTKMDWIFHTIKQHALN
Sequence (P27986 whole entry partner): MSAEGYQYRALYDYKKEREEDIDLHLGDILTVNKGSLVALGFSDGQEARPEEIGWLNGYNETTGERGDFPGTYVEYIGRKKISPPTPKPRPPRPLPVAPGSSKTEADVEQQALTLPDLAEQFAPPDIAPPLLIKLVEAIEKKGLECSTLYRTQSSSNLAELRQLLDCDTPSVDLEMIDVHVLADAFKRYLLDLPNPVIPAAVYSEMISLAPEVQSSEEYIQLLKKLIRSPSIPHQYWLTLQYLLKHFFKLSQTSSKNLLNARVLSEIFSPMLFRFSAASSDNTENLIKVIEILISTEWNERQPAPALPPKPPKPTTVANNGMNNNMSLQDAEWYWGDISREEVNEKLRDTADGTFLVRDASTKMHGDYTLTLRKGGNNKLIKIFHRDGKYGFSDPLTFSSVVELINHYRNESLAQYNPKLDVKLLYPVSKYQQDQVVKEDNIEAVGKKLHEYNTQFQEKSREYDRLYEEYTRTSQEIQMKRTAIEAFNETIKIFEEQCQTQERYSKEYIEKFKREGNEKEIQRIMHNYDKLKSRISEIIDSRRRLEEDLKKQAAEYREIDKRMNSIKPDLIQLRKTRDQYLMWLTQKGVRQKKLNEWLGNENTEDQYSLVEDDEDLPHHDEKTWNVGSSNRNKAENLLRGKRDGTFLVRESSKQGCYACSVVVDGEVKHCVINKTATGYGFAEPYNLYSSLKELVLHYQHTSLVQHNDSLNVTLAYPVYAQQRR
Experiment: HTRF assay, potency against active PI3Kα
Settings: HTRF; [ATP]=50 μM, [di-C8-PIP2]=10 μM; 30 min pre-incubation; read-out: PI3Kα Inhibition
pIC50: −log10 of the molar value.
quantity-kind: pIC50

[[record]]
item_smiles = "C=CC(=O)NCc1ccc(-c2cc3nc(-c4cccc5[nH]ncc45)nc(N4CCOCC4)c3s2)cc1"
result = "6.00 to 7.00"


Notebook: C/C=C/C(=O)CCC(=O)NCCCC(=O)N1CCN(Cc2cc3nc(-c4cccc5[nH]ncc45)nc(N4CCOCC4)c3s2)CC1 , pIC50 read as 7.00 to 8.00

Notebook: C=CC(=O)N1CCN(Cc2cc3nc(-c4ccccc4)nc(N4CCOCC4)c3s2)CC1 , pIC50 read as < 6.00

Notebook: C=C(C)C(=O)c1ccc(C(=O)N2CC=C(c3cc(-c4cnc(N)nc4)nc(N4CCOCC4)c3)CC2)cc1 , pIC50 read as 7.00 to 8.00

Notebook: C/C=C/C(=O)CCC(=O)N1CCC(O)(C#Cc2cc3nc(-c4cccc(O)c4)nc(N4CCOCC4)c3s2)CC1 , pIC50 read as > 8.00

Notebook: C/C=C/C(=O)CCC(=O)N1CCN(c2ccc(-c3cc4nc(-c5cccc(O)c5)nc(N5CCOCC5)c4s3)cc2)CC1 , pIC50 read as > 8.00

Notebook: C=CC(=O)N1CCN(C(=O)C2CCN(Cc3cc4nc(-c5cccc(O)c5)nc(N5CCOCC5)c4s3)CC2)CC1 , pIC50 read as 6.00 to 7.00
